target: T1, cMetECDHis (human, UniProt P08581 25-932, limits assumed, biotinylated in the cross-block ELISA of Example 17); assay: cross-block ELISA; competitor G11-HZ
T1 construct: Expressed in HEK-293F cells; also called soluble cMetECDHis; biotinylated cMetECDHis
// residual binding, % of no competitor lookup, one value per entry
Expressed in %, but write only the number.

binder	experimental-endpoint	value-unit	result-number
anti-c-Met HuMab 005 (IgG1) (antibody, V domains shown, also called TH1016-005; PC1016-005) VH: QVQLVQSGAEVKKPGSSVKVSCKASGGTFSSYGFGWVRQAPGQGLEWMGRISPILGIANYAQMFQGRVTITADKSTSTAYMELSSLRSEDTAVYYCARDVGYDWPDTFDIWGQGTMVIVSS VL: DIQMTQSPSSLSASVGDRVTITCRASQGISSWLAWYQQKPEKAPKSLIYAASSLQSGVPSRFSGGGSGTDFTLTISSLQPEDFATYYCQQYNSFPPTFGQGTKVEIK	residual binding, % of no competitor	%	76.8

Prompt line: GET /values?readout=residual binding, % of no competitor&item= IgG1-1016-058 (antibody, V domains shown, also called IgG1-058; TH1016-058) VH: EVQLVESGGGLVKPGGSLKLSCAASGFTFSDYYMYWVRQTPEKRLEWVATISDDGSYTYYPDSVKGRFTISRDNAKNNLYLQMSSLKSEDTAMYYCAREGLYYYGSGSYYNQDYWGQGTLVTVSS VL: AIQLTQSPSSLSASVGDRVTITCRASQGLSSALAWYRQKPGKAPKLLIYDASSLESGVPSRFSGSGSGTDFTLTISSLQPEDFATYYCQQFTSYPQITFGQGTRLEIK
Response line: 81.5

Prompt line: GET /values?readout=residual binding, % of no competitor&item= IgG1-1016-069 (antibody, V domains shown, also called clone 069; TH1016-069) VH: QVQLVQSGAEVKKPGASVKVSCETSGYTFTSYGISWVRQAPGHGLEWMGWISAYNGYTNYAQKLQGRVTMTTDTSTSTAYMELRSLRSDDTAVYYCARDLRGTNYFDYWGQGTLVTVSS VL: DIQMTQSPSSVSASVGDRVTITCRASQGISNWLAWFQHKPGKAPKLLIYAASSLLSGVPSRFSGSGSGTDFTLTISSLQPEDFATYYCQQANSFPITFGQGTRLEIK
Response line: 110
